Data provenance is the supplement of paper PMC11451515.

Kindly supply the reported cell viability values for the records listed here.
System: NOMO1
assay_remarks: cell viability relative to DMSO control; higher = less cytotoxic
test_parameters: RPMI 5 mM glucose + 10% FBS; 48 h; 15.4 µM
Numbers only, in %.

[[record]]
compound = "COC1=CC(=CC=C1)C2=CC=C(NC(=O)/C3=C(/CCC3)C(O)=O)C(=C2)F"
reported_measurement = 96

[[record]]
compound = "OCCNC1CCCc2c1[nH]c1ccc(-c3ccccc3)cc21 (stereo not given)"
reported_measurement = 98.6

[[record]]
compound = "CN1CC/C(CC1)=C3\\c4ccccc4CC(=O)c2sccc23"
reported_measurement = 151


Hi! Can you tell me cell viability for each of these compounds?
1. CCCNCC(O)COc1ccccc1C(=O)CCc1ccccc1 (stereo not given)
2. CC(C)(C)Cn1c(N)nc2ccc(-c3[nH]c(C(C)(C)C)nc3-c3ccc(F)cc3)nc21

1: 111; 2: 83.2

---

Test system: P12-Ichikawa
assay_remarks: cell viability relative to DMSO control; higher = less cytotoxic
test_parameters: RPMI 5 mM glucose + 10% FBS; 48 h; 0.19 µM
quantity_measured: cell viability

Solved cases (5 shown):
[[record]]
molecule = "NC1CCC(Nc2nc(Nc3ccc(C(=O)N4CCCCC4)cc3)c3ncn(-c4cccc(F)c4)c3n2)CC1 (stereo not drawn)"
quantity_measured = "cell viability"
reported_measurement = "128%"

[[record]]
molecule = "C[C@@H](NCc1cc2ccccc2[nH]1)c1cccc2ccccc12"
quantity_measured = "cell viability"
reported_measurement = "91.3%"

[[record]]
molecule = "O=C1CCC[C@@H]2[C@H]3CCC[N+]4([O-])CCC[C@@H](CN12)[C@@H]34 (stereo partly drawn)"
quantity_measured = "cell viability"
reported_measurement = "97.2%"

[[record]]
molecule = "Cc1ccc(NC(=O)c2cccc(N(C)C)c2)cc1NC(=O)c1ccc(O)cc1"
quantity_measured = "cell viability"
reported_measurement = "111%"

[[record]]
molecule = "NC(=O)c1cnc(-c2ccc(C3(N)CCC3)cc2)c(-c2ccccc2)c1"
quantity_measured = "cell viability"
reported_measurement = "134%"


Hi! Can you tell me cell viability for each of these molecules?
1. FC(F)(F)C1=CC=C2C(SCCCCCO\C3=C\O\C(CN4CCOCC4)=C/C3=O)=CC=NC2=C1
2. C[C@H](NC(=O)Cc1cc(F)cc(F)c1)C(=O)N[C@@H]1C(=O)N(C)c2ccccc2-c2ccccc21
3. CC(=O)OCC(=O)[C@@]12OC(C)(C)O[C@@H]1C[C@H]3[C@@H]4C[C@H](F)C/5=C/C(=O)/C=C\[C@]5(C)[C@@]4(F)[C@@H](O)C[C@]23C
4. Nc1nc(Nc2ccc([S+](N)(=O)[O-])cc2)nn1C(=O)c1c(F)cccc1F
5. C[C@]12CC[C@@H]3c4ccc(O)cc4CC[C@H]3[C@@H]1CC[C@@H]2O
6. Cn1c(=O)c2[nH]cnc2n(C)c1=O
7. CC(=O)Oc1cc2c(s1)CCN(C(C(=O)C1CC1)c1ccccc1F)C2.Cl (stereo not drawn)
8. OC1=CC2=C(C(=O)\C=C(/O2)C3=CC=CC=C3)C(=C1O)O

1. 109%
2. 125%
3. 84.2%
4. 105%
5. 111%
6. 115%
7. 124%
8. 111%

---

System: SEM cells
assay_remarks: cell viability relative to DMSO control; higher = less cytotoxic
test_parameters: RPMI 5 mM glucose + 10% FBS; 48 h; 0.00702 µM
Kindly supply the reported cell viability values for the records listed here.
Numbers only, in %.

Solved cases (4 shown):
[[record]]
compound = "CN(CCOc1ccc(NS(C)(=O)=O)cc1)CCc1ccc(NS(C)(=O)=O)cc1"
unit_text = "%"
reported_measurement = 101

[[record]]
compound = "O=C([O-])[C@H](CC(=O)N1C[C@H]2CCCC[C@H]2C1)Cc1ccccc1"
unit_text = "%"
reported_measurement = 105

[[record]]
compound = "C=C[C@H]1CN2CCC1C[C@@H]2[C@@H](O)c1ccnc2ccccc12 (some centres undefined)"
unit_text = "%"
reported_measurement = 93.2

[[record]]
compound = "NCCCCCC(=O)O"
unit_text = "%"
reported_measurement = 104


Hi! Can you tell me cell viability for each of these compounds?
1. CCCc1nc2c(C)cc(-c3nc4ccccc4n3C)cc2n1Cc1ccc(-c2ccccc2C(=O)O)cc1
2. C[C@@H](NCc1cc2ccccc2[nH]1)c1cccc2ccccc12

1: 152; 2: 87.2

---

System: P12-Ichikawa
assay_remarks: cell viability relative to DMSO control; higher = less cytotoxic
test_parameters: RPMI 5 mM glucose + 10% dialyzed FBS; 48 h; 15.4 µM
quantity_measured: cell viability (%)
Give bare numbers, in %.

Solved cases (3 shown):
[[record]]
molecule = "CN(c1nccc(=O)[nH]1)C1CCN(c2nc3ccccc3n2Cc2ccc(F)cc2)CC1"
reported_measurement = 119

[[record]]
molecule = "Cc1cc(SCc2sc(-c3ccc(C(F)(F)F)cc3)nc2C)ccc1OCC(=O)O"
reported_measurement = 87.2

[[record]]
molecule = "COc1ccc(CC2c3cc(OC)c(OC)cc3CC[N+]2(C)CCC(=O)OCCCCCOC(=O)CC[N+]2(C)CCc3cc(OC)c(OC)cc3C2Cc2ccc(OC)c(OC)c2)cc1OC (centres undefined)"
reported_measurement = 95.1


Please examine the following record next.
Tell us which cell viability value is on record for `CCOC(CN1C(=O)[C@](CC(=O)Nc2ccc(C)cc2)(NC(=O)Nc2ccc(C)cc2)c2ccccc21)OCC`
98

---

Test system: P12-Ichikawa
assay_remarks: cell viability relative to DMSO control; higher = less cytotoxic
test_parameters: RPMI 5 mM glucose + 10% FBS; 48 h; 0.0632 µM
Kindly supply the reported cell viability values for the records listed here.

[[record]]
compound = "COc1cccc2c(NCc3ccccc3)nc(-n3c(N)nc4ccccc43)nc12"
quantity_measured = "cell viability"
reported_measurement = "111%"

[[record]]
compound = "CC(Cc1ccc(O)c(O)c1)(NN)C(=O)O (stereo unspecified)"
quantity_measured = "cell viability"
reported_measurement = "113%"

[[record]]
compound = "FC1=CC=C(CN2\\C=C/C=C(/C(=O)N[C@@H](COC3=CC4=C(NC(=O)N4)C=C3)C5=CC=CC=C5)C2=O)C=C1F"
quantity_measured = "cell viability"
reported_measurement = "88.9%"

[[record]]
compound = "O=C(C[C@@H]1C/C=C\\CCC(=O)O[C@H](c2ccccc2)CNC1=O)NCc1ccc(Cl)cc1"
quantity_measured = "cell viability"
reported_measurement = "115%"

[[record]]
compound = "CCc1ccc(C(=O)Nc2cc(CN3CCN(C)CC3)cc(C(F)(F)F)c2)cc1C#Cc1cnc2ccnn2c1"
quantity_measured = "cell viability"
reported_measurement = "124%"


Please examine the following record next.
Tell us which cell viability value is on record for `C/C(=C\c1csc(C)n1)[C@@H]1C[C@@H]2O[C@@H]2CCC[C@H](C)[C@H](O)[C@@H](C)C(=O)C(C)(C)[C@@H](O)CC(=O)O1`
20%

---

Kindly supply the reported cell viability values for the records listed here.
Test system: SEM cells
assay_remarks: cell viability relative to DMSO control; higher = less cytotoxic
test_parameters: HPLM + 10% dialyzed FBS; 48 h; 0.0632 µM
One number for each entry, in %.

[[record]]
compound = "O=C(O)c1ccc(-c2c[nH]c3ncc(-c4ccccc4)cc23)cc1C1CCCC1"
quantity_measured = "cell viability"
reported_measurement = 118

[[record]]
compound = "C[C@H]1C[C@H]2[C@@H]3CCC4=CC(=O)C=C[C@]4(C)[C@H]3C(=O)C[C@]2(C)[C@@]1(O)C(=O)CO"
quantity_measured = "cell viability"
reported_measurement = 70.6

[[record]]
compound = "Cc1cc(-c2nnc3n2CCCCC3)c(C)n1-c1ccccc1"
quantity_measured = "cell viability"
reported_measurement = 117


Hi! Can you tell me cell viability for each of these compounds?
1. CC(C[N+](C)(C)C)OC(N)=O (centres undefined)
2. O=C(O)CSCC(=O)NC1CCSC1=O (centres undefined)
3. CO[C@H]1/C=C/O[C@@]2(C)Oc3c(C)c(O)c4c(O)c(c(/C=N/N5CCN(C)CC5)c(O)c4c3C2=O)NC(=O)/C(C)=C\C=C\[C@H](C)[C@H](O)[C@@H](C)[C@@H](O)[C@@H](C)[C@H](OC(C)=O)[C@@H]1C
4. CC(=O)C1=C(O)C2(C)C(=CC1=O)Oc1c(C(C)=O)c(O)c(C)c(O)c12 (centres undefined)
5. O=C(NCCO[N+](=O)[O-])c1cccnc1

[96.1, 99.3, 119, 124, 105]

Tell us which cell viability value is on record for OC(CCN1CCCCC1)(C2CC\3CC2\C=C3)C4=CC=CC=C4 (centres undefined)
123

---

Kindly supply the reported cell viability values for the records listed here.
System: NOMO1
assay_remarks: cell viability relative to DMSO control; higher = less cytotoxic
test_parameters: RPMI 5 mM glucose + 10% FBS; 48 h; 0.19 µM
Give bare numbers, in %.

Solved cases (4 shown):
[[record]]
molecule = "CNC(=O)c1ccc(N2C(=S)N(c3ccc(C#N)c(C(F)(F)F)c3)C(=O)C2(C)C)cc1F"
unit_text = "%"
reported_measurement = 111

[[record]]
molecule = "CCOC(CN1C(=O)[C@](CC(=O)Nc2ccc(C)cc2)(NC(=O)Nc2ccc(C)cc2)c2ccccc21)OCC"
unit_text = "%"
reported_measurement = 104

[[record]]
molecule = "CO[C@H]1/C=C/O[C@@]2(C)Oc3c(C)c(O)c4c(O)c(c(/C=N\\N5CCN(C6CCCC6)CC5)c(O)c4c3C2=O)NC(=O)/C(C)=C\\C=C\\[C@H](C)[C@H](O)[C@@H](C)[C@@H](O)[C@@H](C)[C@H](OC(C)=O)[C@@H]1C"
unit_text = "%"
reported_measurement = 76.5

[[record]]
molecule = "CC(Cc1ccc(O)c(O)c1)(NN)C(=O)O (stereo not given)"
unit_text = "%"
reported_measurement = 103


Hi! Can you tell me cell viability for each of these molecules?
1. COc1ccccc1OCCNCC(O)COc1cccc2[nH]c3ccccc3c12 (stereo not given)
2. Cn1cc(-c2cnn3c(N)c(Br)c([C@@H]4CCCNC4)nc23)cn1
3. O=C1CCC[C@@H]2[C@H]3CCC[N+]4([O-])CCC[C@@H](CN12)[C@@H]34 (stereo not given in full)
4. COc1cc(Nc2ncc(F)c(Nc3ccc4c(n3)N(COP(=O)(O)O)C(=O)C(C)(C)O4)n2)cc(OC)c1OC
5. CC1(C)Cc2c(sc(NC(=S)NC(=O)c3ccccc3)c2C(=O)O)CO1
6. CC(=O)Oc1cc2c(s1)CCN(C(C(=O)C1CC1)c1ccccc1F)C2.Cl (stereo not given)

103
89.3
92
98.6
96.6
108
